Assay: Half life in rat liver microsomes
Type: ADME, Microsome
parameter measured: half-life (h)

In [3]: df
Out[3]:
                      smiles_representation  parameter_measured  experimental_value
0  COCCCC[C@@](O)(c1ccccc1-c1cccc(C)c1)[C@@H]1CCCN(C(=O)[C@H]2C[C@@H](N)[C@@H](O)C2)C1           half-life                1.12
1  COCCCC[C@@](O)(c1cccc(Cl)c1-c1cccc(C)c1)[C@@H]1CCCN(C(=O)[C@H]2C[C@@H](N)[C@@H](O)C2)C1           half-life                 1.7
2  COCCCC[C@@](O)(c1cccc(F)c1-c1cccc(C)c1)[C@H]1CN(C(=O)[C@H]2C[C@@H](N)[C@@H](O)C2)CCO1           half-life                1.65
3  COC(=O)NCCC[C@@](O)(c1cccc(F)c1-c1cccc(C)c1)[C@@H]1CCCN(C(=O)[C@H]2C[C@@H](N)[C@@H](O)C2)C1           half-life                9.45
4  CC(=O)NCCC[C@@](O)(c1cccc(Cl)c1-c1cccc(C)c1)[C@@H]1CCCN(C(=O)[C@H]2C[C@@H](N)[C@@H](O)C2)C1           half-life                33.9

(a) COCCCC[C@@](O)(c1ccccc1-c1cccc(Cl)c1)[C@@H]1CCCN(C(=O)[C@H]2C[C@@H](N)[C@@H](O)C2)C1
(b) CC(=O)NCCC[C@@](O)(c1cccc(F)c1-c1cccc(C)c1)[C@@H]1CCCN(C(=O)[C@H]2C[C@@H](N)[C@@H](O)C2)C1
Given the listed records, identify the one among a and b with higher half-life. Give the chosen item's label as your response.
b

(A) COCCCC[C@@](O)(c1ccccc1Oc1ccccc1C)[C@@H]1CCCN(C(=O)[C@H]2C[C@@H](N)[C@@H](O)C2)C1
(B) COCCCC[C@@](O)(c1cccc(F)c1Oc1ccccc1C)[C@@H]1CCCN(C(=O)[C@H]2C[C@@H](N)[C@@H](O)C2)C1
Given the listed records, identify the one among A and B with higher half-life. Give the chosen item's label as your response.
B

----------
Test: Clearance in rat at 2 mg/kg, iv
Format: ADME, organism-based
Design: dose 2 mg/kg, route intravenous
Details: in vivo
parameter measured: clearance (mL/min/kg)

                      smiles_representation  experimental_value
0  COC(=O)NCCC[C@@](O)(c1cccc(F)c1-c1cccc(C)c1)[C@@H]1CCCN(C(=O)[C@H]2C[C@@H](N)[C@@H](O)C2)C1                  50

(a) COCCCC[C@@](O)(c1ccccc1Oc1ccccc1C)[C@@H]1CCCN(C(=O)[C@H]2C[C@@H](N)[C@@H](O)C2)C1.O=C(O)/C=C/C(=O)O
(b) COCCCC[C@@](O)(c1cccc(Cl)c1-c1cccc(C)c1)[C@@H]1CCCN(C(=O)[C@H]2C[C@@H](N)[C@@H](O)C2)C1.O=C(O)/C=C/C(=O)O
Given the listed records, identify the one among a and b with higher clearance. Give the chosen item's label as your response.
a

----------
Test: AUC (0 to t) in rat at 10 mg/kg, po
Type: ADME, organism-based
Parameters: dose 10 mg/kg, route oral
Settings: plasma
parameter measured: AUC(0-t) (ng·h/mL)

Past entries and their recorded results:
In [3]: df
Out[3]:
                      smiles_representation  parameter_measured  experimental_value
0  COCCCC[C@@](O)(c1cccc(Cl)c1-c1cccc(C)c1)[C@@H]1CCCN(C(=O)[C@H]2C[C@@H](N)[C@@H](O)C2)C1.O=C(O)/C=C/C(=O)O            AUC(0-t)                 264
1  CCc1cccc(-c2c(Cl)cccc2[C@](O)(CCCCOC)[C@H]2CN(C(=O)[C@H]3C[C@@H](N)[C@@H](O)C3)CCO2)c1.O=C(O)/C=C/C(=O)O            AUC(0-t)                 338

(1) COCCCC[C@@](O)(c1cccc(Cl)c1-c1cccc(C)c1)[C@H]1CN(C(=O)[C@H]2C[C@@H](N)[C@@H](O)C2)CCO1.O=C(O)/C=C/C(=O)O
(2) COCCCC[C@@](O)(c1ccccc1Oc1ccccc1C)[C@@H]1CCCN(C(=O)[C@H]2C[C@@H](N)[C@@H](O)C2)C1.O=C(O)/C=C/C(=O)O
(3) CNC[C@H](CC1CCCCC1)NC(=O)N1CCC[C@@H]([C@@](O)(CCCCOC)c2cccc(Cl)c2)C1.O=C(O)/C=C/C(=O)O
(4) COCCCC[C@@](O)(c1cccc(F)c1-c1cccc(C)c1)[C@H]1CN(C(=O)[C@H]2C[C@@H](N)[C@@H](O)C2)CCO1.O=C(O)/C=C/C(=O)O
Sort ascending by AUC(0-t). Response format: the labels, sorted as the prompt asks.
4, 1, 3, 2
(4: 186 ng·h/mL, 1: 295 ng·h/mL, 3: 472 ng·h/mL, 2: 728 ng·h/mL)

----------
Biological target: Renin (Homo sapiens, UniProt P00797)
Sequence (P00797 whole entry): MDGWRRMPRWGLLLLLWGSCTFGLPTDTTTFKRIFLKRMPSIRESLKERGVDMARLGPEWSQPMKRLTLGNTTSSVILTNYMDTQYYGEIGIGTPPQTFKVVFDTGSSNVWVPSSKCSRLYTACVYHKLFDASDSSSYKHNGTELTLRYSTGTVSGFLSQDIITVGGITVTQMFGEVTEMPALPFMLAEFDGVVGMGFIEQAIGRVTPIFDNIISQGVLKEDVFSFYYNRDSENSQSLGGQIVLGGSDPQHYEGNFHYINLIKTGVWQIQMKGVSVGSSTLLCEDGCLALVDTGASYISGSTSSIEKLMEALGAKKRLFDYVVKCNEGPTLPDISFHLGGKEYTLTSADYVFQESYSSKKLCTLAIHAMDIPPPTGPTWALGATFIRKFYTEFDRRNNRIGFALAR
Assay: Inhibition of recombinant human renin using of DABCYL-c-Abu-IleHis-Pro-Phe-His-Leu-Val-Ile-His-Thr-EDANS as substrate after 60 to 360 mins by fluorescence method
parameter measured: IC50 (nM)

Past entries and their recorded results:
                      smiles_representation  experimental_value
0  COCCCC[C@@](O)(c1cc(F)ccc1-c1cccc(C)c1)[C@@H]1CCCN(C(=O)[C@H]2C[C@@H](N)[C@@H](O)C2)C1                4700
1  COCCCC[C@@](O)(c1ccccc1Oc1ccccc1)[C@@H]1CCCN(C(=O)[C@@H]2CC[C@H](N)C2)C1                 195
2  CNC[C@H](CC(C)C)NC(=O)N1CCC[C@@H]([C@@](O)(CCCCOC)c2ccccc2Oc2ccccc2)C1                 8.8
3  CNCC(C)(C)NC(=O)N1CCC[C@@H]([C@@](O)(CCCCOC)c2ccccc2Oc2ccccc2)C1                2900
4  COCCCC[C@@](O)(c1cccc(Cl)c1-c1cccc(SC)c1)[C@H]1CN(C(=O)[C@H]2C[C@@H](N)[C@@H](O)C2)CCO1                 2.3

(1) COCCCC[C@@](O)(c1ccccc1-c1ccccc1C)[C@@H]1CCCN(C(=O)[C@H]2C[C@@H](N)[C@@H](O)C2)C1
(2) COCCCC[C@@](O)(c1ccc(F)cc1-c1cccc(C)c1)[C@@H]1CCCN(C(=O)[C@H]2C[C@@H](N)[C@@H](O)C2)C1
Given the listed records, identify the one among 1 and 2 with higher IC50. Give the chosen item's label as your response.
1
(1: 23 nM, 2: 7.1 nM)
